system: SN12C renal; assay: NCI-60 one-dose screen, 48 h (100 = growth as untreated, 0 = no growth, -100 = all killed); conditions: 10 µM unless noted
This is part of a sample that, as a whole, favours compounds with a hit. Of some 83,000 tested, about 20% had one in any assay.
Returns one of Met or Not met; Met when growth is >= 30%.

structureSmilesString | categoryLabel
COc1cc(-c2cc(-c3ccc(Nc4ncnc5cc(Cl)ccc45)cc3)nc(N3CCN(C)CC3)n2)cc(OC)c1OC | Met
CCCCCCCC/C=C\CCCCCCCCOc1ccccc1CC(=O)NCC[N+]1(C)CCCCC1 | Met
Cc1nc2sc(C(=O)Nc3ccccc3)c(N)c2cc1C(=O)/C=C/c1ccccc1 | Not met

Does the reported growth for "COc1ccc(Cc2cnc(NC(=O)c3sc4ccccc4c3Cl)s2)cc1" fall at or above the 30% mark?
Not met

Another compound to look at: "Cn1cc(-c2csc(-c3cn(C)c4ccc(Br)cc34)n2)c2cnccc21"
Not met

Another compound to look at: "N=C(N)c1ccc(-c2ccc(-c3ccc(F)cc3)s2)s1"
Not met

Another compound to look at: "N#Cc1c(-c2ccccc2)cc(-c2ccccc2)n(CCCC(=O)NO)c1=O"
Not met

Another compound to look at: "Cc1cc(C)cc(Nc2ccc([N+](=O)[O-])c(NCCN3CCOCC3)n2)c1"
Met

Another compound to look at: "CC/C(Cc1ccccc1)=C(\c1ccc(OCCN2CCCCCC2)cc1)c1ccc(OC(=O)NCc2ccccc2)cc1"
Met

Another compound to look at: "NC(=O)OCCn1cc(-c2nc(-c3c[nH]c4ncccc34)cs2)c2ccccc21"
Met
